Values compiled from ChEMBL document CHEMBL3774328.

biological target: ATP-dependent translocase ABCB1 (Homo sapiens, UniProt P08183); assay: Inhibition of human MDR1 expressed in mouse NIH/3T3 cells assessed as reduction in daunomycin IC50 at 3 uM by MTT assay; assay type: cell-based; conditions: nih3t3, 3 µM
Sequence (P08183 whole entry): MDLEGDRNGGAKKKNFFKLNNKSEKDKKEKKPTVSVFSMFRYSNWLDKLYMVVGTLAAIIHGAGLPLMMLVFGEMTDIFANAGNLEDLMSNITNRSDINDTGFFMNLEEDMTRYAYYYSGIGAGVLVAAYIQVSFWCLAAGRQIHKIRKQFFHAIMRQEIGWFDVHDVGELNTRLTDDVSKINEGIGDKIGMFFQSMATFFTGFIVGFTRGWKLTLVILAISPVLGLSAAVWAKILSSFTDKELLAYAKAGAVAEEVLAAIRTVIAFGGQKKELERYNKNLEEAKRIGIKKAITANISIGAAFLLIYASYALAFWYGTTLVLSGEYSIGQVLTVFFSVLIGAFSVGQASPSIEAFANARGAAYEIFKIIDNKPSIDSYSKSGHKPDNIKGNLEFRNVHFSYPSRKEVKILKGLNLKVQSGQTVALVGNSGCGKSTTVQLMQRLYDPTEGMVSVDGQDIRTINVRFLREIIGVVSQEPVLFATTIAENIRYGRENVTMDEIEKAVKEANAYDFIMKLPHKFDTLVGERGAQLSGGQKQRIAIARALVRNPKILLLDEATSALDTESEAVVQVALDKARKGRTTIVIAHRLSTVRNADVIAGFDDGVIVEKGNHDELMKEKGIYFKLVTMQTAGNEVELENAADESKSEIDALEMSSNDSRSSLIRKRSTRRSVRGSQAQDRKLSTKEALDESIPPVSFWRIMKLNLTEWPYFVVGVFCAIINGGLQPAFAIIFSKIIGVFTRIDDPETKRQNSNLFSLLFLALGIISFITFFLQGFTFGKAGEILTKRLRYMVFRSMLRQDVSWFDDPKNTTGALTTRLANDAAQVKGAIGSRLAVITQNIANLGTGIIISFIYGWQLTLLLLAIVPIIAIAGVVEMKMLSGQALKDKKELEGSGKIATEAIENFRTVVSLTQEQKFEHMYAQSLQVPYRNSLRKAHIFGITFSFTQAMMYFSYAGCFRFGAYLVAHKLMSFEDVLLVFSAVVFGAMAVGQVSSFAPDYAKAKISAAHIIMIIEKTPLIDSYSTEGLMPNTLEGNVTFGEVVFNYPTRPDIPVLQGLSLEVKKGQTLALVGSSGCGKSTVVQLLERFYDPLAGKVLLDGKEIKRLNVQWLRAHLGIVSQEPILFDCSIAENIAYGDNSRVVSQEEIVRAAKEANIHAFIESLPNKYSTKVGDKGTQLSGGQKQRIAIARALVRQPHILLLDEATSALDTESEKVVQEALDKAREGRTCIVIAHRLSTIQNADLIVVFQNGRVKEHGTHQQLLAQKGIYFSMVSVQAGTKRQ
Observable: fold change (FC)

Short answer on ATP-dependent translocase ABCB1 (Homo sapiens, UniProt P08183) for `CC(=O)O[C@H]1CC[C@](C)(Cl)[C@]23OC(C)(C)[C@H]([C@H](OC(=O)/C=C/c4ccccc4)[C@H](OC(=O)c4ccccc4)[C@]12C)[C@H]3Cl` , fold change (FC): 12.9

Short answer on ATP-dependent translocase ABCB1 (Homo sapiens, UniProt P08183) for `CC(=O)O[C@H]1CC[C@](C)(O)[C@]23OC(C)(C)[C@H]([C@H](OC(=O)/C=C/c4ccccc4)[C@H](OC(=O)c4ccccc4)[C@]12C)[C@H]3OC(=O)CCC(=O)N(C(=O)NC1CCCCC1)C1CCCCC1` , fold change (FC): 19.5

Short answer on ATP-dependent translocase ABCB1 (Homo sapiens, UniProt P08183) for CC(=O)O[C@H]1CC[C@](C)(O)[C@]23OC(C)(C)[C@H]([C@H](OC(=O)/C=C/c4ccccc4)[C@H](OC(=O)c4ccccc4)[C@]12C)[C@H]3OC(=O)CCC(=O)OC1CCCCC1O (some centres not stated) , fold change (FC): 11

Short answer on ATP-dependent translocase ABCB1 (Homo sapiens, UniProt P08183) for `CC(=O)O[C@H]1CC[C@](C)(O)[C@]23OC(C)(C)[C@H]([C@H](OC(=O)/C=C/c4ccccc4)[C@H](OC(=O)c4ccccc4)[C@]12C)[C@H]3OC(=O)CCC(=O)OCCO` , fold change (FC): 7.5

Short answer on ATP-dependent translocase ABCB1 (Homo sapiens, UniProt P08183) for `CC(=O)O[C@H]1CC[C@](C)(O)[C@@]23OC(C)(C)[C@@H](C2=O)[C@H](OC(=O)/C=C/c2ccccc2)[C@H](OC(=O)c2ccccc2)[C@]13C` , fold change (FC): 10.4

Short answer on ATP-dependent translocase ABCB1 (Homo sapiens, UniProt P08183) for `CC(=O)O[C@H]1CC[C@](C)(O)[C@]23OC(C)(C)[C@H]([C@H](OC(=O)/C=C/c4ccccc4)[C@H](OC(=O)c4ccccc4)[C@]12C)[C@H]3OC(=O)c1cnccn1` , fold change (FC): 4

Short answer on ATP-dependent translocase ABCB1 (Homo sapiens, UniProt P08183) for `CC(=O)O[C@H]1CC[C@](C)(O)[C@]23OC(C)(C)[C@H]([C@H](OC(=O)/C=C/c4ccccc4)[C@H](OC(=O)c4ccccc4)[C@]12C)[C@H]3OS(C)(=O)=O` , fold change (FC): 11.1

Short answer on ATP-dependent translocase ABCB1 (Homo sapiens, UniProt P08183) for `CC(=O)O[C@H]1CC[C@](C)(O)[C@]23OC(C)(C)[C@H]([C@H](OC(=O)/C=C/c4ccccc4)[C@H](OC(=O)c4ccccc4)[C@]12C)[C@H]3O` , fold change (FC): 9.1

Short answer on ATP-dependent translocase ABCB1 (Homo sapiens, UniProt P08183) for `CCC(=O)O[C@@H]1[C@H]2[C@H](OC(=O)/C=C/c3ccccc3)[C@H](OC(=O)c3ccccc3)[C@]3(C)[C@@H](OC(C)=O)CC[C@](C)(O)[C@@]13OC2(C)C` , fold change (FC): 11.5

Short answer on ATP-dependent translocase ABCB1 (Homo sapiens, UniProt P08183) for `CC(=O)O[C@H]1CC[C@](C)(O)[C@]23OC(C)(C)[C@H]([C@H](OC(=O)/C=C\c4ccccc4)[C@H](OC(=O)c4ccccc4)[C@]12C)[C@H]3OC(=O)c1cnccn1` , fold change (FC): 5.2

Short answer on ATP-dependent translocase ABCB1 (Homo sapiens, UniProt P08183) for COc1ccc(CCN(C)CCCC(C#N)(c2ccc(OC)c(OC)c2)C(C)C)cc1OC (configuration not stated) , fold change (FC): 6.2

Short answer on ATP-dependent translocase ABCB1 (Homo sapiens, UniProt P08183) for `CC(=O)O[C@H]1CC[C@]2(C)O[C@@H]3[C@H]4[C@H](OC(=O)/C=C/c5ccccc5)[C@H](OC(=O)c5ccccc5)[C@@]1(C)[C@]32OC4(C)C` , fold change (FC): 8.7
